Data provenance is patent US20250195521A1.

Give measured pIC50 for each item. Keep answers brief.
# target or test system: KRAS WT (Homo sapiens (Human), UniProt P01116+P62937)
# Sequence (P01116 other isoform, or with tags, fused parts or gaps): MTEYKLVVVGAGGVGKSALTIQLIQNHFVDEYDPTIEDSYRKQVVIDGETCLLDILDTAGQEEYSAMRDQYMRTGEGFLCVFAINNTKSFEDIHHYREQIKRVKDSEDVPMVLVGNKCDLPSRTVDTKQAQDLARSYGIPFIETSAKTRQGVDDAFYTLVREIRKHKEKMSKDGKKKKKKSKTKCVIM
# Sequence (P62937 whole entry): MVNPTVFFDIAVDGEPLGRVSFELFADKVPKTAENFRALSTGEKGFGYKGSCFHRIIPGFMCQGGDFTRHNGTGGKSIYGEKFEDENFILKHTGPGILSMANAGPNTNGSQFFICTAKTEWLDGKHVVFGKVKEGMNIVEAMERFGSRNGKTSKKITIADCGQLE
# measurement notes: Ras-Raf disruption/FRET/MOA assay (BRAF RBD, Cyclophilin A)
# Type: biochemical
# measurement context: read-out: KRAS WT FRET data IC50
pIC50: −log10 of the molar value.

CCn1c(-c2cnccc2COC)c2c3cc(ccc31)-c1cc(O)cc(c1)C[C@H](NC(=O)[C@@H](NC(=O)c1ncco1)C(C)C)C(=O)N1CCC[C@H](N1)C(=O)OCC(C)(C)C2 [Compound A56]	5.00 to 6.00
CCn1c(-c2cccnc2[C@H](C)OC)c2c3cc(ccc31)-c1csc(n1)C[C@H](NC(=O)N1CC[C@@H]1COC)C(=O)N1CCC[C@H](N1)C(=O)OCC(C)(C)C2 [Compound A264]	6.00 to 7.00

From here, focus on the item given below.
*Q* Requested read-out: pIC50. Entry: CCn1c(-c2cccnc2[C@H](C)OC)c2c3cc(ccc31)-c1cc(CF)cc(c1)C[C@H](NC(=O)[C@H](C(C)C)N(C)C(=O)[C@@H]1OCC[C@@H]1c1ccccc1)C(=O)N1CCC[C@H](N1)C(=O)OCC(C)(C)C2 [Compound A509]
*A* 6.00 to 7.00
